System: MDA-N
protocol.details: NCI tumour cell line growth inhibition, 48 h
Activity calls are given as the source filed them. Cut-off read from the data, not from the text of the source: active = GI50 up to about 1.1 µM and inactive = higher. Where a SMILES comes first, the peptide text is derived from it. [ ]: non-standard residue; d: D form. The star is where a group is joined. Phe(4-NO2) = N[CH](Cc1ccc([N+](=O)[O-])cc1)C(=O)O; Cbz = O=C(OCc1ccccc1)*
Classes used: True (active), False (inactive)

compound	class.name
CS[C@]12[C@@H]3C(=O)N(C)C(=O)[C@@H]3[C@](C)(C(=O)N1C)C(=O)N2c1ccccc1	False
Nc1n[nH]c(N)n1 [GUANAZOLE]	False
COc1ccccc1C(=O)NCC1CCCN2CCCCC12 (stereo unspecified)	False
CCN(CCCN(CC)C(=O)Nc1ccccc1)C(=O)Nc1ccccc1	False
O=C1CC(=O)NC(NN2C(=O)CSC2C(=O)c2ccco2)=N1 (stereo unspecified)	False
Nc1cc2c(nc3c4ccccc4c(N)cc3[n+]2-c2cccc3ccccc23)c2ccccc12.Nc1cc2c(nc3c4ccccc4ccc3[n+]2-c2cccc3ccccc23)c2ccccc12	False
O=c1c2nc3ccccc3c(=O)n2ncn1-c1ccccc1Cl	False
CCCCCCCN1C(=O)C(O)(c2ccc(C3(O)C(=O)N(CCCCCCC)c4ccccc43)s2)c2ccccc21 (stereo unspecified)	False
Cc1ccc(Cc2nn(C)c(=O)n2N)cc1	False
OC1[C@@H]2[C@@H](O)[C@H](O)[C@@H](O)N2C[C@@H]1O (stereo partly specified)	False
COc1ccc2nc3cc([N+](=O)[O-])ccc3c(Nc3ccc(S(=O)(=O)N=C(N)N)cc3)c2c1	False
COc1ccc(-n2c(=O)n(-c3ccccc3)c(=O)n2-c2ccc(OC)cc2)cc1	False
CN(C)c1ccc(/C=C2/SC(=S)NC2=O)cc1	False
Cn1ncc2c(NCc3ccccc3)ncnc21	False
COC(=O)C1C2CC3C1C3C2C(=O)OC (stereo unspecified)	False
O=c1n(N=[S+]([O-])(c2ccccc2)c2ccccc2)c(=O)n2n1C1C=CC2CC1	False
CCOC(=O)c1[nH]c(-c2[nH]c(-c3[nH]c(-c4[nH]c(C(=O)OCC)c(C)c4C(=O)OCC)c(C(=O)OCC)c3C)c(C)c2C(=O)OCC)c(C(=O)OCC)c1C	False
CN(C)c1ccc(/C=C(\C#N)c2nc(-c3cc4ccccc4oc3=O)cs2)cc1	False
Cc1nc(N/N=C/c2ccccc2Cl)[nH]c(=O)c1CCO	False
COc1cc(C(=O)NC2CCc3cc(OC)c(OC)c(OC)c3-c3ccc(OC)c(=O)cc32)cc(OC)c1OC (stereo unspecified)	True
O=c1cc(/N=N\c2ccc(Br)cc2)[nH]c(=S)[nH]1	False
Cc1cn(C2CC(n3cc(Cn4cc(F)c(=O)[nH]c4=O)nn3)C(CO)O2)c(=O)[nH]c1=O (stereo unspecified)	False
Cc1ccc(C2SCC(=O)N2NC(=O)c2ccncc2)s1 (stereo unspecified)	False
COC1(OC)C2(Cl)CCC1(Cl)C(OC(C)=O)C2 (stereo unspecified)	False
C=CCNc1nc2c(s1)C(=O)c1ccccc1C2=O	False
COC(=O)c1c(O)ccc2c1c1c(n2Cc2ccccc2OC)C(=O)c2ccccc2C1	False
COc1cc(/C=N/n2c(C)n[nH]c2=O)cc(OC)c1OC	False
COC(=O)C(Cc1ccccc1)NP(=O)(O)OCC1OC(n2ccc(N)nc2=O)C(O)C1O (stereo unspecified)	False
CCC[C@@H](O)C[C@@H]1CCC[C@H](C[C@@H](O)CC)N1C	False
O=C1C2=C(C(=O)c3c(O)ccc(O)c31)[C@@H](O)[C@@H](O)[C@@H](O)C2	False
CCCCC1(N=[N+]=[N-])C(=O)c2cccc3c2N(CCC3)C1=O (stereo unspecified)	False
C=C(C)[C@@H]1CC[C@]2(C(=O)O)CC[C@]3(C)[C@H](CCC4[C@@]5(C)CC[C@H](C(=O)/C=C/c6ccc(O)c(O)c6)C(C)(C)[C@@H]5CC[C@]43C)[C@@H]12 (stereo partly specified)	False
CCOC(=O)CCC(NC(=O)OCc1ccccc1)C(=O)NC(CCC(=O)OCC)C(=O)NC(Cc1ccc([N+](=O)[O-])cc1)C(=O)NC(CCC(=O)OCC)C(=O)NC(CCC(=O)OCC)C(=O)OCC (stereo unspecified) (Cbz-E(OEt)E(OEt)[Phe(4-NO2)]E(OEt)E(OEt)-OEt; configuration not given here)	False
COC(=O)C1Cc2ccc3c(c2C1=O)CCCC3 (stereo unspecified)	False
N=c1c2c(=S)n(-c3ccccc3)c(=S)n(-c3ccccc3)c2nc(SCCCN2CCCCC2)n1-c1ccccc1	False
Fc1ccc(Oc2nc3ccc(C(F)(F)F)cc3nc2-c2ccccc2)cc1	False
